- ASSAY_DETAILS: Clearance in rat at 1 mg/kg, iv and 2 mg/kg, po
- Type: ADME, organism-based
- PROTOCOL_CONDITIONS: in vivo
PROPERTY: clearance

Request: # return recorded clearance for entry FC(F)(F)c1ccc(Nc2noc3c(C(F)(F)F)cccc23)cc1
Response: 30 mL/min/kg

----------
- TARGET_ENTITY: Bifunctional epoxide hydrolase 2 (Rattus norvegicus, UniProt P80299)
- Sequence (P80299 whole entry): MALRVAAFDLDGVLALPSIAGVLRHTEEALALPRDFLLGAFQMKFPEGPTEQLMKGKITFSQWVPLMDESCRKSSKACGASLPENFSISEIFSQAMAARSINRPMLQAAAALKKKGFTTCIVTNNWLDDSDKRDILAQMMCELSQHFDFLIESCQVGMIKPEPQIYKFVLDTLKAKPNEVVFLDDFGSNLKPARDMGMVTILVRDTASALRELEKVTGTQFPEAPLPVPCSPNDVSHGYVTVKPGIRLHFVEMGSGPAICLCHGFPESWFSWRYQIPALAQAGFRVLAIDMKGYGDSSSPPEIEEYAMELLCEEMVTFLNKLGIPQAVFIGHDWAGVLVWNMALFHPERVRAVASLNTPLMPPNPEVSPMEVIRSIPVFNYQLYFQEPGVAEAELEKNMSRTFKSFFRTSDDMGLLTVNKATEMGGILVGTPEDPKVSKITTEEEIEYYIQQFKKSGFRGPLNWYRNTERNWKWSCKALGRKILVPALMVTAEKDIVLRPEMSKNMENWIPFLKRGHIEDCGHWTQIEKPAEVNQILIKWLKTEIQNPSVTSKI
- ASSAY_DETAILS: Inhibition of rat sEH
pIC50: −log10 of the molar value.
If the reported pIC50 equals or exceeds 7, assign Y. If not, assign N.

Examples with answers:
[[record]]
entry_smiles = "c1ccc(-c2ccc(Nc3noc4ccccc34)cc2)cc1"
category = "N"

[[record]]
entry_smiles = "FC(F)(F)c1ccc(Nc2noc3c(-c4ccc5[nH]ccc5c4)cccc23)cc1"
category = "Y"

[[record]]
entry_smiles = "FC(F)(F)c1ccc(Nc2noc3cc(-c4cccnc4)ccc23)cc1"
category = "Y"


As a next step, examine the compound that follows.
Request: Please indicate if the recorded pIC50 for c1ccc2c(Nc3noc4ccccc34)cccc2c1 meets or exceeds 7.
Response: N
